# target.desc: ~100 representative kinases (Homo sapiens, UniProt Q9UKI8)
# Construct: Recombinant protein kinase domains with a concentration of 2 μM
# Sequence (Q9UKI8 1-766): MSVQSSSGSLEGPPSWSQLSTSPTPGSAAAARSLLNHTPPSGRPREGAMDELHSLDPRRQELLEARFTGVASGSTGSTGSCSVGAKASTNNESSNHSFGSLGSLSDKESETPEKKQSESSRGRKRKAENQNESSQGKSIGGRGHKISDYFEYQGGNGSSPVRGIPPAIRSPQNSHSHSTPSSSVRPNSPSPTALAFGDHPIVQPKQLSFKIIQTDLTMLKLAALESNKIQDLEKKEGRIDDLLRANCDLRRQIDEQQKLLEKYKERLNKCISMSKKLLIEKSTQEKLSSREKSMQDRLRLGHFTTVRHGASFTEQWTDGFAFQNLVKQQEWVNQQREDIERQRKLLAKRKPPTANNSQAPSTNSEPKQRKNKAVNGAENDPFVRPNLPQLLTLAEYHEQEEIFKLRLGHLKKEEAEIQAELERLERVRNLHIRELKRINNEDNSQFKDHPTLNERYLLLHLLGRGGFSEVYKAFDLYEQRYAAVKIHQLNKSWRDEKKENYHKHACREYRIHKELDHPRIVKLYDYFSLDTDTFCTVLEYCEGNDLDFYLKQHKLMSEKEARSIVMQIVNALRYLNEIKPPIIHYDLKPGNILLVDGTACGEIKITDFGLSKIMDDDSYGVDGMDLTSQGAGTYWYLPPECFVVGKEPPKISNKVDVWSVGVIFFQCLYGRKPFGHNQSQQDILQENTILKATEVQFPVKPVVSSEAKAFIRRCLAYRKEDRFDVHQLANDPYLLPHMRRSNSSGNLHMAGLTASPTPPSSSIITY
# procedure.text: DSF 100 kinase selectivity screen;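 note: compound tested at 20 µM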
# Type: binding
# assay.conditions: Protein TLK1; DSF; average of three replicates
As shown below, each of these molecules has a reported dTm value.
The reply should be a number in K, with the unit left off.

O=C(Nc1ccc(F)cc1)C1(C(=O)Nc2cccc(-c3c[nH]c4ncnc(N5CCOCC5)c34)c2)CC1 = -1.13

Exercise: Param readout= dTm; system= ~100 representative kinases (Homo sapiens, UniProt Q9UKI8); entry= COc1ccc(NC(=O)C2(C(=O)Nc3cccc(-c4c[nH]c5ncnc(N6CCOCC6)c45)c3)CC2)cc1 ; returns value.
Solution: -1.11

Exercise: Param readout= dTm; system= ~100 representative kinases (Homo sapiens, UniProt Q9UKI8); entry= O=C(Nc1cccc(-c2c[nH]c3ncnc(N4CCOCC4)c23)c1)C1(C(=O)Nc2cccc3c2CCC3)CC1 ; returns value.
Solution: 1.55

Exercise: Param readout= dTm; system= ~100 representative kinases (Homo sapiens, UniProt Q9UKI8); entry= CC(=O)N1CCN(c2nc(Cl)nc3[nH]cc(-c4cccc(NC(=O)Nc5cc(C(C)(C)C)nn5-c5ccc(C)cc5)c4)c23)CC1 ; returns value.
Solution: -1.67

Exercise: Param readout= dTm; system= ~100 representative kinases (Homo sapiens, UniProt Q9UKI8); entry= COc1cc(NC(=O)C2(C(=O)Nc3cccc(-c4c[nH]c5ncnc(N6CCOCC6)c45)c3)CC2)ccc1F ; returns value.
Solution: -0.77

Exercise: Param readout= dTm; system= ~100 representative kinases (Homo sapiens, UniProt Q9UKI8); entry= CC(C)(C)c1cccc(NC(=O)C2(C(=O)Nc3cccc(-c4c[nH]c5ncnc(N6CCOCC6)c45)c3)CC2)c1 ; returns value.
Solution: 0.35

Exercise: Param readout= dTm; system= ~100 representative kinases (Homo sapiens, UniProt Q9UKI8); entry= CNC(=O)c1cc(Oc2ccc(NC(=O)Nc3cc(C(C)(C)C)nn3-c3ccc4ncccc4c3)c(F)c2)ccn1 [Rebastinib, reference compound] ; returns value.
Solution: 0.57
